These entries and their values trace back to patent US20250011316A1.

Listed here: items and their measured solubility.
test: Solubility Assay (HPLC); format: physicochemical; conditions: HEPES/NaCl buffer, aqueous with cosolvent or surfactant or cyclodextrin, kinetic from dmso stock; 20 mM HEPES, 100 mM NaCl, pH 7.5, 18-24 hours at ambient temperature; read-out: Solubility

As a guide, the following entries are already answered.
C=C(NC(=O)c1csc(N2CCC(NC(=O)C3CCOCC3)CC2)n1)C(=O)NC(=C)C(=O)OC : 100 to 1000 µM
C=C(NC(=O)c1csc(N2CCC(N(C)C(=O)OCC)CC2)n1)C(=O)NC(=C)C(=O)OC : < 100 µM

// switching to the query compound
Exam item: Give the measured solubility of C=C(NC(=O)c1csc(N2CCC(C(=O)NCCCOC(C)C)CC2)n1)C(=O)NC(=C)C(=O)OC .
Marked response: 100 to 1000 µM
